# assay.explanation: growth inhibition of BT084 medulloblastoma cells, cell-based, ICGC_MB145, cisplatin and BGB IC40 combos (AID 1671461);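 also: cells exposed to drugs for 96 hours; 0% = vehicle DMSO and 100% = high DMSO full killing control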
# condition.description: drug combinations, single agent, at 5 µM, stronger effect = higher value
measure: inhibition (%)
Field: numeric (%). Do not append units.

Field: example entries. Status: answers known.
1. O=c1cc(-c2cccc3c2Sc2ccccc2S3)oc(N2CCOCC2)c1: -39.1
2. CO[C@H]1/C=C/O[C@@]2(C)Oc3c(C)c(O)c4c(O)c(c(C=NN5CCN(C)CC5)c(O)c4c3C2=O)NC(=O)/C(C)=C\C=C\[C@H](C)[C@H](O)[C@@H](C)[C@@H](O)[C@@H](C)[C@H](OC(C)=O)[C@@H]1C: -1.11
3. O=c1ncccn1[C@@H]1O[C@H](CO)[C@@H](O)[C@H]1O: -11.2
4. CC(C)N=c1cc2n(-c3ccc(Cl)cc3)c3ccccc3nc-2cc1Nc1ccc(Cl)cc1: -11.5
5. NC(=O)c1ncn(C2OC(CO)C(O)C2O)n1 (configuration not stated): 8.51
6. O=c1[nH]c(-c2ccc(C(F)(F)F)cc2)nc2c1CSCC2: -20.3

Could you now look at the following compound, please?
Query: inhibition; subject: CCc1c2c(nc3ccc(O)cc13)-c1cc3c(c(=O)n1C2)COC(=O)[C@]3(O)CC 52.7
